Give measured OD450 at 2.67 nM for each item. Keep answers brief.
target: biotinylated labeled human GPC3 protein (produced in-house) (human, UniProt P51654 25-559, limits assumed, biotinylated (Dojindo, Cat. No. LK03); sites not stated); assay: ELISA, biotinylated human GPC3 protein
Respond with the bare value in OD450.

Look up OD450 at 2.67 nM for this binder: hAb003LH1L1 (antibody, human IgG1, V domains shown, Humanized F2.154.1; VH H1 + VL L1; expressed as human IgG1) VH: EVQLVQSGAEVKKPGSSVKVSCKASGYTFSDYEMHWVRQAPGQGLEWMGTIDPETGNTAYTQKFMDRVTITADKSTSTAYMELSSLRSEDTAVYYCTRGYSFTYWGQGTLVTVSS VL: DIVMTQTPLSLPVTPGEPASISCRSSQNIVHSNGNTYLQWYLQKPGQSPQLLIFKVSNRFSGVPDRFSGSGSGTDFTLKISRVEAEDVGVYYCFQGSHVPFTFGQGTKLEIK
2.47

Look up OD450 at 2.67 nM for this binder: hAb003LH3L1b (antibody, human IgG1, V domains shown, Humanized F2.154.1; VH H3 + VL L1b; expressed as human IgG1) VH: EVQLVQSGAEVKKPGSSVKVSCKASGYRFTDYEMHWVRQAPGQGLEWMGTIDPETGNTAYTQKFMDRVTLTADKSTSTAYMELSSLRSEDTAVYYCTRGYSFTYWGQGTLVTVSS VL: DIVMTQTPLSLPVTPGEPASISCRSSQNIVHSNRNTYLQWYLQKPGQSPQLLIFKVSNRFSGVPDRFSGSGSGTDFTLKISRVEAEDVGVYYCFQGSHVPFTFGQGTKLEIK
2.44

Look up OD450 at 2.67 nM for this binder: hAb007LH3L1a (antibody, human IgG1, V domains shown, Humanized F3.81.19; VH H3 + VL L1a; expressed as human IgG1) VH: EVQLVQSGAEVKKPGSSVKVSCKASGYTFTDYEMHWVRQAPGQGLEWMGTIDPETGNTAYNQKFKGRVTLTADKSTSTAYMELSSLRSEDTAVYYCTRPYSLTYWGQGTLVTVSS VL: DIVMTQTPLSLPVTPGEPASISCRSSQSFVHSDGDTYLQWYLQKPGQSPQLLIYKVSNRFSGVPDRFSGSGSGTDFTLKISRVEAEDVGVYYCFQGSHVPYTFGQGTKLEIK
1.78

Look up OD450 at 2.67 nM for this binder: hAb006LH3L1b (antibody, human IgG1, V domains shown, Humanized F3.38.7; VH H3 + VL L1b; expressed as human IgG1) VH: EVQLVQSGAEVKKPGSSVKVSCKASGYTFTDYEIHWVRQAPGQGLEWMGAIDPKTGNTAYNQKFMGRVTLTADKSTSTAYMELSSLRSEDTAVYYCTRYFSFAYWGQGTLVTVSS VL: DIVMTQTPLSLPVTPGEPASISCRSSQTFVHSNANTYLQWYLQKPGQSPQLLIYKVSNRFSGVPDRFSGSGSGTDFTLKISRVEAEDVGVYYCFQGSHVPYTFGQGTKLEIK
2.42

Look up OD450 at 2.67 nM for this binder: hAb005LH3L1b (antibody, human IgG1, V domains shown, Humanized F3.54.12; VH H3 + VL L1b; expressed as human IgG1) VH: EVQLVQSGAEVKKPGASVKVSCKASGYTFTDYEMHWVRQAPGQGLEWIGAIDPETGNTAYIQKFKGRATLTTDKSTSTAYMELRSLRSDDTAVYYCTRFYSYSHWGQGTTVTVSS VL: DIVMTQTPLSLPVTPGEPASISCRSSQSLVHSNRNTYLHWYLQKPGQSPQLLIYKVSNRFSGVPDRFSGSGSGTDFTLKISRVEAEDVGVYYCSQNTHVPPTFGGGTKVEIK
1.1

All values here come from patent US20260116991A1.
